- measurement_description: Solubility
- Format: physicochemical
- run_parameters: water, pH 5.4, water; read-out: Solubility of salt in water
endpoint_label: solubility
Form entry: enter the amount, then its unit.

Qu. Given the entry CC(=O)NC[C@H]1CN(c2ccc(-c3ccc(CNCc4cnn[nH]4)cc3)c(F)c2)C(=O)O1 , report its measured solubility.
Ans. 200 µg/mL

* * *

- measurement_description: Solubility
- Type: physicochemical
- run_parameters: water, pH 4, water; read-out: Solubility of salt in water
endpoint_label: solubility (µg/mL)
Give the value, in units of µg/mL, as a plain number.

Qu. Consider the compound shown here: CC(=O)NC[C@H]1CN(c2ccc(-c3ccc(CNCc4cnn[nH]4)cc3)c(F)c2)C(=O)O1 What is its recorded solubility?
Ans. 2600
